System: IL6
testSummary: R848 stimulated IL6 inhibition assay in PBMC
Assay type: cell-based
conditionParameters: PBMC; human PBMCs, R848 stimulation, compound overnight, IL6 by MSD after 24 hrs; read-out: R848 stim IL6 inhibition IC50
Let's look at some compounds and their measured IC50.

compound: Cc1cnc2c(C(=O)Nc3cc4c(cc3OC(C)C)C(=O)N(C3CCN(CC5CCN(c6ccc7c(c6)C(=O)N(C6CCC(=O)NC6=O)C7=O)CC5)CC3)C4)cnn2c1 (stereo not drawn) [Example 56]
IC50: 10 to 50 nM

compound: CC(C)Oc1nc2c(cc1NC(=O)c1cnn3cccnc13)CN(C1CCN(CC3CN(c4ccc(C(=O)NC5CCC(=O)NC5=O)c(F)c4)C3)CC1)C2=O (stereo not drawn) [Example 402]
IC50: 10 to 50 nM

Requested read-out: IC50. Entry: CC(C)Oc1nc2c(cc1NC(=O)c1cnn3cccnc13)CN(C1CCN(CC3CCN(c4ccc5c(c4)C(=O)N(C4CCC(=O)NC4=O)C5=O)CC3)CC1)C2=O (stereo not drawn) [Example 46]
10 to 50 nM

----------
system: IRAK-4 (Homo sapiens, UniProt Q9NWZ3)
Sequence (Q9NWZ3 whole entry): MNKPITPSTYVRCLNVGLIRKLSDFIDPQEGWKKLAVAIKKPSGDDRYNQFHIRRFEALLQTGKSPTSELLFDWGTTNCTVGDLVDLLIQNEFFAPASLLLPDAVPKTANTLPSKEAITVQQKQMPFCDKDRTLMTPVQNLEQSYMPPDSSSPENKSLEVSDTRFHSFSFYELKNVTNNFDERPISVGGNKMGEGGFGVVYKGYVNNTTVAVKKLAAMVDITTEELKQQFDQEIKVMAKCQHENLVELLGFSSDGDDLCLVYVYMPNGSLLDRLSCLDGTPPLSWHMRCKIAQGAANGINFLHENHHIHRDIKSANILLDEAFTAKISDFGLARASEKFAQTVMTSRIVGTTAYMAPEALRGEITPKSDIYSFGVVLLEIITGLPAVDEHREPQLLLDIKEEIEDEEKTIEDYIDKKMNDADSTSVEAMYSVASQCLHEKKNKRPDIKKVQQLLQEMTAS
testSummary: IRAK-4 ELISA, PBMC degradation
Format: cell-based
Design: endogenous in cells; host or cells: PBMC
conditionParameters: treated overnight
readoutType: DC50

Example entries and their recorded answers appear below.
compound: CC(C)Oc1cc2c(cc1NC(=O)c1cnn3cccnc13)CN([C@H]1CC[C@H](N(C)CC3(F)CN(c4ccc5c(c4)C(=O)N(C4CCC(=O)NC4=O)C5=O)C3)CC1)C2=O (stereo partly shown) [Example 365]
system: IRAK-4 (Homo sapiens, UniProt Q9NWZ3)
DC50: 1 to 5 nM

compound: CC(C)Oc1cc2c(cc1NC(=O)c1cnn3cccnc13)CN(C1CCN(CCC3(F)CN(c4ccc5c(c4)C(=O)N(C4CCC(=O)NC4=O)C5=O)C3)CC1)C2=O (stereo not shown) [Example 15]
system: IRAK-4 (Homo sapiens, UniProt Q9NWZ3)
DC50: < 1 nM

compound: O=C1CCC(N2C(=O)c3ccc(N4CC(O)(CN5CCC(n6cc7cc(NC(=O)c8cnn9cccnc89)c(OCC8CC8)cc7n6)CC5)C4)cc3C2=O)C(=O)N1 (stereo not shown) [Example 169]
system: IRAK-4 (Homo sapiens, UniProt Q9NWZ3)
DC50: < 1 nM

compound: CC(C)Oc1cc2c(cc1NC(=O)c1cnn3cccnc13)CN(C1CCN(C[C@@H]3CN(c4ccc5c(c4)C(=O)N(C4CCC(=O)NC4=O)C5=O)CCO3)CC1)C2=O (stereo partly shown) [Example 78]
system: IRAK-4 (Homo sapiens, UniProt Q9NWZ3)
DC50: < 1 nM

compound: O=C1CCC(N2C(=O)c3ccc(N4CC[C@H](N5CCC(n6cc7cc(NC(=O)c8cnn9cccnc89)c(OCC8CC8)cc7n6)CC5)C4)cc3C2=O)C(=O)N1 (stereo partly shown) [Example 225]
system: IRAK-4 (Homo sapiens, UniProt Q9NWZ3)
DC50: 1 to 5 nM

compound: CC(C)Oc1cc2c(cc1NC(=O)c1cnn3cccnc13)CN([C@H]1CC[C@H](CN3CCC(c4ccc5c(c4)C(=O)N(C4CCC(=O)NC4=O)C5=O)CC3)CC1)C2=O (stereo partly shown) [Example 432]
system: IRAK-4 (Homo sapiens, UniProt Q9NWZ3)
DC50: 1 to 5 nM

compound: O=C1CCC(N2C(=O)c3ccc(N4CC(F)(CN[C@H]5CC[C@H](n6cc7cc(NC(=O)c8cnn9cccnc89)c(OCC8CC8)cc7n6)CC5)C4)cc3C2=O)C(=O)N1 (stereo partly shown) [Example 351]
system: IRAK-4 (Homo sapiens, UniProt Q9NWZ3)
DC50: < 1 nM

compound: O=C1CCC(N2C(=O)c3ccc(N4CC[C@@H](O[C@H]5CC[C@@H](n6cc7cc(NC(=O)c8cnn9cccnc89)c(OCC8CC8)cc7n6)CC5)C4)cc3C2=O)C(=O)N1 (stereo partly shown) [Example 425]
system: IRAK-4 (Homo sapiens, UniProt Q9NWZ3)
DC50: ≥ 10 nM

For the next question, use this compound.
Requested read-out: DC50. Entry: O=C1CCC(N2C(=O)c3ccc(N4CCCC5(C4)CN([C@H]4CC[C@H](n6cc7cc(NC(=O)c8cnn9cccnc89)c(OCC8CC8)cc7n6)CC4)C5)cc3C2=O)C(=O)N1 (stereo partly shown) [Example 418]
< 1 nM

----------
system: IRAK-4 (Homo sapiens)
testSummary: IRAK-4 ELISA, PBMC degradation
Format: cell-based
Design: endogenous in cells; host or cells: PBMC
conditionParameters: treated overnight
Protocol: Reagents: Human IRAK-4 Matched Antibody Pair Kit (Abcam ab218182) and ELISA Accessory Pack (Abcam ab210905). Cell Treatment and Lysis: 1. OCI-Ly10: 200,000 cells are seeded at 1×10^6/ml in 96-well U-bottom plates 200 ul per well, treated with compound the same day. Incubate overnight. 2. PBMC: 800,000 cells are seeded at 2×10^6/ml in 96-well U-bottom deep-well plates, 400 ul per well, treated with compound the same day. […] Cell lysate is collected and analyzed by ELISA for IRAK-4 levels.
Let's look at some molecules and their measured DC50.

Example entries and their recorded answers appear below.
molecule: O=C1CC[C@H](N2C(=O)c3ccc(N4CC(F)(CN5CCC(n6cc7cc(NC(=O)c8cnn9cccnc89)c(OCC8CC8)cc7n6)CC5)C4)cc3C2=O)C(=O)N1
DC50: 1 to 5 nM

molecule: O=C1CCC(N2C(=O)c3ccc(N4CCC(CN5CC[C@H](N6Cc7cc(NC(=O)c8cnn9cccnc89)c(N8CCOCC8)cc7C6=O)[C@@H](F)C5)CC4)cc3C2=O)C(=O)N1 (some centres unmarked)
DC50: 1 to 5 nM

molecule: CC(C)Oc1cc2c(cc1NC(=O)c1cnn3cccnc13)CN(C1CCN(CC3(O)CCN(c4ccc5c(c4)C(=O)N(C4CCC(=O)NC4=O)C5=O)CC3)CC1)C2=O (centres unmarked)
DC50: < 1 nM

Requested read-out: DC50. Entry: COc1cc(N2CC(CN3CCC(N4Cc5cc(NC(=O)c6cnn7cccnc67)c(OC(C)C)nc5C4=O)CC3)C2)cc2c1C(=O)N(C1CCC(=O)NC1=O)C2=O (centres unmarked)
< 1 nM

What about O=C1CCC(N2Cc3c(ccc(N4CC(F)(CN5CCC(n6cc7cc(NC(=O)c8cnn9cccnc89)c(OCC(F)F)cc7n6)CC5)C4)c3F)C2=O)C(=O)N1 (centres unmarked) ?
1 to 5 nM

What about CC(C)Oc1cc2c(cc1NC(=O)c1cnn3cccnc13)CN(C1CCN(C[C@H]3CCN(c4ccc5c(c4)C(=O)N(C4CCC(=O)NC4=O)C5=O)C3)CC1)C2=O (some centres unmarked) ?
1 to 5 nM

What about CC(C)Oc1cc2c(cc1NC(=O)c1cnn3cccnc13)CN(C1CCN(CC3(F)CN(c4ccc5c(c4)C(=O)N(C4CCC(=O)NC4=O)C5)C3)CC1)C2=O (centres unmarked) ?
1 to 5 nM

What about COc1cc(N2CCC(CN3CCC(n4cc5cc(NC(=O)c6cnn7cccnc67)c(OCC6CC6)cc5n4)CC3)CC2)cc2c1C(=O)N(C1CCC(=O)NC1=O)C2 (centres unmarked) ?
< 1 nM

What about CC(C)Oc1cc2c(cc1NC(=O)c1cnn3cccnc13)CN(C1CCN(CC3CCN(c4ccc(F)c(C(=O)NC5CCC(=O)NC5=O)c4)CC3)CC1)C2=O (centres unmarked) ?
5 to 10 nM

What about CC(C)Oc1cc2c(cc1NC(=O)c1cnn3cccnc13)CN([C@H]1CC[C@H](N(C)C3CN(c4ccc5c(c4)C(=O)N(C4CCC(=O)NC4=O)C5=O)C3)CC1)C2=O (some centres unmarked) ?
< 1 nM

What about O=C1CCC(N2Cc3cc(N4CC(CN5CCC(N6Cc7cc(NC(=O)c8cnn9cccnc89)c(OCC8CC8)cc7C6=O)CC5)C4)ccc3C2=O)C(=O)N1 (centres unmarked) ?
1 to 5 nM

----------
Let's look at some compounds and their measured Emax.
System: IL6
testSummary: IL-1β stimulated IL6 inhibition assay in PBMC
Type: cell-based
conditionParameters: PBMC; human PBMCs, IL-1β stimulation, compound overnight, IL6 by MSD after 24 hrs; read-out: IL1β stim IL6 inhibition Ymax

Example entries and their recorded answers appear below.
compound: COc1cc2nn(C3CCN(CC4CN(c5ccc6c(c5)CN(C5CCC(=O)NC5=O)C6=O)C4)CC3)cc2cc1NC(=O)c1cnn2cccnc12 (stereo not drawn)
Emax: ≥ 90%
//
compound: CC(C)Oc1cc2c(cc1NC(=O)c1cnn3cccnc13)CN(C1CCC(N(C)C3CN(c4ccc5c(c4)CN(C4CCC(=O)NC4=O)C5=O)C3)CC1)C2=O (stereo not drawn)
Emax: ≥ 90%

For the next question, use this compound.
Requested read-out: Emax. Entry: O=C1CCC(N2Cc3cc(CCN4CCC(n5cc6cc(NC(=O)c7cnn8cccnc78)c(OCC7CC7)cc6n5)CC4)ccc3C2=O)C(=O)N1 (stereo not drawn)
≥ 90%
